# measurementTarget: Nluc-FZD6 (Homo sapiens, UniProt O60353)
# Construct: expressed in transfected cells; host or cells: ΔSMO HEK293A or ΔFZD1–10 HEK293T cells (screen); ΔFZD1–10 HEK293T cells (concentration–response curves)
# Sequence (O60353 19-706): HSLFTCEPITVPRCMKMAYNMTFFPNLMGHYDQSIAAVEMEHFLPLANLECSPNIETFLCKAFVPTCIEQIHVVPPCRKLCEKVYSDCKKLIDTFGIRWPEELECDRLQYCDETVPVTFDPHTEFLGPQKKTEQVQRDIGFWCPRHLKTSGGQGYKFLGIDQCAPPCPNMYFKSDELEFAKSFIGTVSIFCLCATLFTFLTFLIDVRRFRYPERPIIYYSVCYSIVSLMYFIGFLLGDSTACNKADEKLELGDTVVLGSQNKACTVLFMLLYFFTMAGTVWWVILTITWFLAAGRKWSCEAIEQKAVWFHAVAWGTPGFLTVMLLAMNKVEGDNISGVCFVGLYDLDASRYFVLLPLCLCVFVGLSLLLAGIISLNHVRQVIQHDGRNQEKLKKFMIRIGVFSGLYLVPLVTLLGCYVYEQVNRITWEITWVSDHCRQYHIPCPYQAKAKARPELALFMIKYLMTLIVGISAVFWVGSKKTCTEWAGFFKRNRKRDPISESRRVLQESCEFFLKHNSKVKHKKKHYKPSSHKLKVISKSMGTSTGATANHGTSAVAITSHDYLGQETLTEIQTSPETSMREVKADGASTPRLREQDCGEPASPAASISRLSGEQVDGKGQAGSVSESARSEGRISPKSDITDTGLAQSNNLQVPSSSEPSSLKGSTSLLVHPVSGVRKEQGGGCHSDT
# protocolText: BRET-based BODIPY-cyclopamine competition binding at Nluc-FZD6 in live HEK293 cells
# details: 10 µM compound; BODIPY-cyclopamine 300 nM; TECAN Spark reader (complete tracer displacement: net BRET = -0.03823)
readout: Displacement @ 10 µM compound (Nluc-FZD6) ΔBRET

Guide cases for Displacement @ 10 µM compound (Nluc-FZD6) ΔBRET, answers given:
{"structureAsSmiles": "O=C(N[C@H]1CC[C@H](N(Cc2cccc(-c3ccncc3)c2)C(=O)c2sc3ccccc3c2Cl)CC1)c1ccncc1Cl", "measurementTarget": "Nluc-FZD6 (Homo sapiens, UniProt O60353)", "testResult": -0.0299}
{"structureAsSmiles": "CC(C)C(=O)Nc1cccc(C(=O)N[C@H]2CC[C@H](N(Cc3cccc(-c4ccncc4)c3)C(=O)c3sc4ccccc4c3Cl)CC2)c1", "measurementTarget": "Nluc-FZD6 (Homo sapiens, UniProt O60353)", "testResult": -0.0268}
{"structureAsSmiles": "O=C(CN1CCOCC1)Nc1cccc(C(=O)N[C@H]2CC[C@H](N(Cc3cccc(-c4ccncc4)c3)C(=O)c3sc4ccccc4c3Cl)CC2)c1", "measurementTarget": "Nluc-FZD6 (Homo sapiens, UniProt O60353)", "testResult": -0.0335}

[1] CN1CCN(CC(=O)Nc2cccc(C(=O)N[C@H]3CC[C@H](N(Cc4cccc(-c5ccncc5)c4)C(=O)c4sc5ccccc5c4Cl)CC3)c2)CC1
[2] CN[C@H]1CC[C@H](N(Cc2cccc(-c3ccncc3)c2)C(=O)c2sc3ccccc3c2Cl)CC1.Cl.Cl
Q: // max by Displacement @ 10 µM compound (Nluc-FZD6) ΔBRET over [ 1 , 2 ] # respond with the chosen item's label
Ans: 2

* * *

# measurementTarget: Nluc-FZD6 (Homo sapiens, UniProt O60353)
# Construct: expressed in transfected cells; host or cells: ΔSMO HEK293A or ΔFZD1–10 HEK293T cells (screen); ΔFZD1–10 HEK293T cells (concentration–response curves)
# protocolText: BRET-based BODIPY-cyclopamine competition binding at Nluc-FZD6 in live HEK293 cells
# details: 10 µM compound; BODIPY-cyclopamine 300 nM; TECAN Spark reader
readout: Displacement % (%)

{"compound": "CCC(=O)Nc1cccc(C(=O)N[C@H]2CC[C@H](N(Cc3cccc(-c4ccncc4)c3)C(=O)c3sc4ccccc4c3Cl)CC2)c1 [compound 14]", "readout": "Displacement %", "valueUnits": "%", "testResult": 75.9}
{"compound": "O=C(CN1CCOCC1)Nc1cccc(C(=O)N[C@H]2CC[C@H](N(Cc3cccc(-c4ccncc4)c3)C(=O)c3sc4ccccc4c3Cl)CC2)c1 [compound 19]", "readout": "Displacement %", "valueUnits": "%", "testResult": 87.6}
{"compound": "CN1CCC(C(=O)Nc2cccc(C(=O)N[C@H]3CC[C@H](N(Cc4cccc(-c5ccncc5)c4)C(=O)c4sc5ccccc5c4Cl)CC3)c2)CC1 [compound 17]", "readout": "Displacement %", "valueUnits": "%", "testResult": 73.6}
{"compound": "CN1CCN(CC(=O)Nc2cccc(C(=O)N[C@H]3CC[C@H](N(Cc4cccc(-c5ccncc5)c4)C(=O)c4sc5ccccc5c4Cl)CC3)c2)CC1 [compound 18]", "readout": "Displacement %", "valueUnits": "%", "testResult": 81.1}
{"compound": "Nc1ccc(C(=O)N[C@H]2CC[C@H](N(Cc3cccc(-c4ccncc4)c3)C(=O)c3sc4ccccc4c3Cl)CC2)nn1 [compound 23]", "readout": "Displacement %", "valueUnits": "%", "testResult": 85.8}
{"compound": "CC(C)C(=O)Nc1cccc(C(=O)N[C@H]2CC[C@H](N(Cc3cccc(-c4ccncc4)c3)C(=O)c3sc4ccccc4c3Cl)CC2)c1 [compound 15]", "readout": "Displacement %", "valueUnits": "%", "testResult": 70.1}

[a] O=C(N[C@H]1CC[C@H](N(Cc2cccc(-c3ccncc3)c2)C(=O)c2sc3ccccc3c2Cl)CC1)c1ccncc1Cl [compound 21]
[b] CN[C@H]1CC[C@H](N(Cc2cccc(-c3ccncc3)c2)C(=O)c2sc3ccccc3c2Cl)CC1.Cl.Cl [SAG1.3]
Q: Which has the smaller recorded Displacement %, a or b ? # respond with the chosen item's label
Ans: b
